Measured values drawn from paper PMC6054100 for this set.

This listing pairs molecules with measured pKd.
TARGET OF ASSAY: NK1 (Homo sapiens)
PROCEDURE DETAILS: SPR steady-state binding to immobilized NK1 (Biacore T100)
Set-up: made in house; host or cells: Pichia pastoris
CONDITION CONTEXT: steady-state binding constant from SPR (ESI Tables S3-S7); read-out: KD
Friendly reminder that pKd comes from taking -log10 of the concentration in mol/L.

Solved cases below.
ENTRY SMILES	VALUE KIND	EXPERIMENTAL VALUE
Nc1ccc(F)cc1F	pKd	2.96
Cc1nn(C)c(C)c1N	pKd	2.82
Cc1nc(C(N)=S)cs1	pKd	2.28
COC(=O)c1ccccc1F	pKd	2.54
CNCc1cccnc1	pKd	2.79

Which pKd is reported for this molecule? Cc1cc(N)n(C)n1
3.00

Do the same for Cc1ccc(C(=O)O)cc1Cl please
2.60

* * *

TARGET OF ASSAY: NK1 (Homo sapiens)
PROCEDURE DETAILS: 1H-15N TROSY-HSQC NMR chemical shift titration of 15N-labelled NK1
Type: binding
Parameters: made in house; host or cells: Pichia pastoris
CONDITION CONTEXT: steady-state binding constants; piperazine-like compounds; 0.18 mM NK1, pH 7.2, 310 K; read-out: KD in NMR
This listing pairs molecules with measured log10(Kd).
Note the log scale: values are log10 of Kd expressed in mM.

Solved cases below.
MOLECULE	log10(Kd)
O=S(=O)(O)CCN1CCOCC1	1.13
O=S(=O)(O)CCN1CCN(CCS(=O)(=O)O)CC1 [PIPES, reference compound]	1.66
O=S(=O)(O)CCCN1CCOCC1	0.67
O=S(=O)(O)CCCN1CCN(CCO)CC1	0.64
O=S(=O)(O)CCN1CCN(CCO)CC1	0.52
O=S(=O)(O)CCCNC1CCCCC1	0.15

Here is the next item to consider.
Provide value of log10(Kd) for this record tested with NK1 (Homo sapiens): O=S(=O)(O)CCNC1CCCCC1
1.20

* * *

TARGET OF ASSAY: NK1 (Homo sapiens)
PROCEDURE DETAILS: 1H-15N TROSY-HSQC NMR chemical shift titration of 15N-labelled NK1
Format: binding
Set-up: made in house; host or cells: Pichia pastoris
CONDITION CONTEXT: NMR chemical shift titration; read-out: KD
VALUE KIND: pKd
Friendly reminder that pKd comes from taking -log10 of the concentration in mol/L.

Provide value of pKd for this record tested with NK1 (Homo sapiens): O=C(O)CCc1ccco1
3.96

* * *

TARGET OF ASSAY: NK1 (Homo sapiens, UniProt P14210)
Sequence (P14210 32-210 isoform P14210-6 limits assumed): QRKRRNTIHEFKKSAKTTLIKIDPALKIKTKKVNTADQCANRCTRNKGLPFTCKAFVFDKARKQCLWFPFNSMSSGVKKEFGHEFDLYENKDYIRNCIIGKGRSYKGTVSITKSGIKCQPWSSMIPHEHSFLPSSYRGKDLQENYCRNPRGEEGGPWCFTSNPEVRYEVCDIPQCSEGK
PROCEDURE DETAILS: SPR fragment library screening against NK1
Type: binding
Parameters: made in house; host or cells: Pichia pastoris
CONDITION CONTEXT: based on fragment screening; rank among the 71 NK1 hits (ESI Tables S3-S7)
VALUE KIND: Ranking order
Form field (numeric): enter value without unit.

COMPOUND	TARGET OF ASSAY	EXPERIMENTAL VALUE
Cc1ccc(C#N)c(=O)[nH]1 [MB1260]	NK1 (Homo sapiens, UniProt P14210)	8
Nc1ccc(F)cc1F [MB396]	NK1 (Homo sapiens, UniProt P14210)	18
c1ccc2[nH]ncc2c1 [AT0381]	NK1 (Homo sapiens, UniProt P14210)	44
Nc1cccc(OC(F)(F)F)c1 [MB406]	NK1 (Homo sapiens, UniProt P14210)	54
CNCc1cccnc1 [MB1290]	NK1 (Homo sapiens, UniProt P14210)	9
Cc1ccsc1CN [MB1237]	NK1 (Homo sapiens, UniProt P14210)	4

Provide value of Ranking order for this record tested with NK1 (Homo sapiens, UniProt P14210): Cc1cc(Cl)ccc1C(=O)O [MB1318]
33

* * *

TARGET OF ASSAY: NK1 (Homo sapiens)
PROCEDURE DETAILS: SPR fragment library screening against NK1
Type: binding
Set-up: made in house; host or cells: Pichia pastoris
CONDITION CONTEXT: based on fragment screening; rank among the 71 NK1 hits (ESI Tables S3-S7)
Procedure: Supplementary Materials and Methods Fragment library screening and data analysis Met567 (soluble truncated f ragment of the MET ectodomain, residues 25- 567), NK1 and t he SPH domain were immobilized on CM5 chips by amine coupling. […] For data analysis, fir st, all responses were reference and solvent corrected. 1 Next, equilibrium binding for every fragment was determined and hits established by applying several filters: sensorgram shape, upper and lower threshold. […]
This listing pairs compounds with measured Ranking order.
Form field (numeric): enter value without unit.

Solved cases below.
COMPOUND	TARGET OF ASSAY	EXPERIMENTAL VALUE
Cc1cc(N)n(C)n1	NK1 (Homo sapiens)	41
O=C(O)c1ccc2[nH]ncc2c1	NK1 (Homo sapiens)	38
O=C(C1CCCCO1)N1CCCC1 (stereo not shown)	NK1 (Homo sapiens)	68
Nc1cccc(S(N)(=O)=O)c1	NK1 (Homo sapiens)	59

Provide value of Ranking order for this record tested with NK1 (Homo sapiens): COC(=O)c1ccc(F)cc1Cl
25

Do the same for O=C(C1CCOCC1)N1CCCCC1 please
62

Do the same for Cc1cccc(C)c1C#N please
13

* * *

TARGET OF ASSAY: NK1 (Homo sapiens)
PROCEDURE DETAILS: SPR steady-state binding to immobilized NK1 (Biacore T100)
Set-up: made in house; host or cells: Pichia pastoris
CONDITION CONTEXT: steady-state binding constant from SPR; MB605-related compounds (Table 4); read-out: KD
VALUE KIND: Kd

Solved cases below.
COMPOUND	Kd
O=P(O)(O)CCc1ccccc1	2.2 mM
O=C(O)CCc1ccc(-c2ccccc2F)o1	2.1 mM
O=C(O)CCc1cccs1	1.1 mM
O=C(O)CCc1cc2ccccc2o1	0.7 mM

Here is the next item to consider.
Which Kd is reported for this compound? O=C(O)CCc1ccccc1 [501-520-0, hydrocinnamic acid]
2.2 mM

* * *

TARGET OF ASSAY: UniProt P14210
PROCEDURE DETAILS: SPR fragment library screening against NK1
Format: binding
Design: made in house; host or cells: Pichia pastoris
CONDITION CONTEXT: normalised relative value against NK1; fragments 500 μM (ESI Tables S3-S7)
Method: Supplementary Materials and Methods Fragment library screening and data analysis Met567 (soluble truncated f ragment of the MET ectodomain, residues 25- 567), NK1 and t he SPH domain were immobilized on CM5 chips by amine coupling. […] For data analysis, fir st, all responses were reference and solvent corrected. 1 Next, equilibrium binding for every fragment was determined and hits established by applying several filters: sensorgram shape, upper and lower threshold. […]
Class key for SPR response values: range 1 (below 50%), range 2 (50% to below 60%), range 3 (60% or more)

// known answers, use as guide
MOLECULE	CATEGORY
CCCc1ccc(C(C)=O)cc1 [MB1315]	range 2
Nc1cccc(OC(F)(F)F)c1 [MB406]	range 1
Cc1ccc(C#N)c(=O)[nH]1 [MB1260]	range 3
O=C(C1CCCCO1)N1CCCC1 (centres unmarked) [MB1067]	range 1
CC1(C(=O)O)CC2C=CC1C2 (centres unmarked) [MB385]	range 2
Cc1cc(N)no1 [MB397]	range 3
Nc1ncccn1 [CA023]	range 2

Please report the category associated with NC(=S)c1ncc(C(F)(F)F)cc1N1CCCC1 [MB1218] , nothing else.
range 2

* * *

TARGET OF ASSAY: NK1 (Homo sapiens)
PROCEDURE DETAILS: SPR fragment library screening against NK1
Format: binding
Set-up: made in house; host or cells: Pichia pastoris
CONDITION CONTEXT: based on fragment screening; rank among the 71 NK1 hits (ESI Tables S3-S7)
VALUE KIND: Ranking order

Solved cases below.
MOLECULE	VALUE KIND	EXPERIMENTAL VALUE
NC(=S)N1CCOCC1	Ranking order	43
Cc1nc(C#N)cs1	Ranking order	3
FC(F)(F)c1cc[nH]n1	Ranking order	48
NC(=S)c1ncc(C(F)(F)F)cc1N1CCCC1	Ranking order	37
COC(=O)c1sc(C(C)(C)C)cc1N	Ranking order	63

Here is the next item to consider.
Which Ranking order is reported for this molecule? N#CCCNCC1CCCO1 (stereo not drawn)
65

* * *

TARGET OF ASSAY: NK1 (Homo sapiens, UniProt P14210)
PROCEDURE DETAILS: SPR fragment library screening against NK1
Assay type: binding
Design: made in house; host or cells: Pichia pastoris
CONDITION CONTEXT: based on fragment screening; rank among the 71 NK1 hits (ESI Tables S3-S7)
This listing pairs compounds with measured Ranking order.
Form field (numeric): enter value without unit.

COMPOUND	Ranking order
Nc1ccc(OC(F)F)cc1 [MB1293]	22
O=C(O)c1ccccc1C(=O)c1ccc(F)cc1 [MB900]	69
NC(=O)Cc1ccc(O)cc1 [MB1174]	53
NC(=O)Cc1ccc(F)cc1Cl [MB1321]	28

Which Ranking order is reported for this compound? N#CCOc1cccc(C(F)(F)F)c1 [MB1251]
27

Do the same for COC(=O)c1scc(C)c1Cl [MB916] please
64

Do the same for CN(C)C(=O)c1ccc2nccnc2c1 [MB1058] please
29
